Biological target: LRRK2(G2019S mutation, GST-LRRK2(amino acids 970-2527)) (Homo sapiens (Human), UniProt Q5S007, G2019S)
Sequence (Q5S007 970-2527 G2019S): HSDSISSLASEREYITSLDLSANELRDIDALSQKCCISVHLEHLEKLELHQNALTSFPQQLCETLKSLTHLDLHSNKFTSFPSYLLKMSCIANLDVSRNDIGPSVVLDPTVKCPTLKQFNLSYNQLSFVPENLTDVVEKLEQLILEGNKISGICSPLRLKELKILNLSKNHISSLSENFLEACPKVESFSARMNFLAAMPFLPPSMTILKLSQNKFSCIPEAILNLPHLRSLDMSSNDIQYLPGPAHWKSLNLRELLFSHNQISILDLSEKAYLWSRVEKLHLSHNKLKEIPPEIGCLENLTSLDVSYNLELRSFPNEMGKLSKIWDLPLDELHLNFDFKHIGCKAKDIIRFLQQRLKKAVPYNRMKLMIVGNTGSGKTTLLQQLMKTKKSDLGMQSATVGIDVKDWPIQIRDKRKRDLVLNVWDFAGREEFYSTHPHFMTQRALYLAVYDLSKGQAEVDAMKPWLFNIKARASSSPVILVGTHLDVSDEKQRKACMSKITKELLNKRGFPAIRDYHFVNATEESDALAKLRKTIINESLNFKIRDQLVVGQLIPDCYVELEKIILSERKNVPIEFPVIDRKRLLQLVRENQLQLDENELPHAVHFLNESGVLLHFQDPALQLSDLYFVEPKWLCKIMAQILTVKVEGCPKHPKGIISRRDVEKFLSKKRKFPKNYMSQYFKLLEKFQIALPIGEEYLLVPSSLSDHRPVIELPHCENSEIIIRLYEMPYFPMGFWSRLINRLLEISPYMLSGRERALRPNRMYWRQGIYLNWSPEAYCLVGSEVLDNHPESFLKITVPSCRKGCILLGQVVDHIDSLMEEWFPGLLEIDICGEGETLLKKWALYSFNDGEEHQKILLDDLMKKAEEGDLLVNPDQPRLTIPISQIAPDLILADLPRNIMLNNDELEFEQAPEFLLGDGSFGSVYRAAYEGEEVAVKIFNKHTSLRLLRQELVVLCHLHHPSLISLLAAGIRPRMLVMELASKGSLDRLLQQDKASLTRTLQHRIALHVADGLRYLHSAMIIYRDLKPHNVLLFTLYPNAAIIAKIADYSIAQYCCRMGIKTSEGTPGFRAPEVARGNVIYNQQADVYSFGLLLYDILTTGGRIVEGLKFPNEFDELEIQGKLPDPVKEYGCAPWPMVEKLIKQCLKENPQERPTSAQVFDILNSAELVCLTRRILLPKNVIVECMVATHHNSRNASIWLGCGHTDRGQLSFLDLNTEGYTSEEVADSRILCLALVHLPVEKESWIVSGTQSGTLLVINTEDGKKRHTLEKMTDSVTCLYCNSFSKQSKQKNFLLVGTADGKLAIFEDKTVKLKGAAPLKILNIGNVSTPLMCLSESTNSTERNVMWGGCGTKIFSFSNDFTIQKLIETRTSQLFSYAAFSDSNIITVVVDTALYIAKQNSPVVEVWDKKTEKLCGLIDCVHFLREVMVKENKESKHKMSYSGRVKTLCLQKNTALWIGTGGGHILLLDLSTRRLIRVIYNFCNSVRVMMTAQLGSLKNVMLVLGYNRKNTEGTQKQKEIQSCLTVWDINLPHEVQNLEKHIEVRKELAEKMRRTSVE
Experiment: LRRK2 Km ATP LanthaScreen Assay
Assay type: biochemical
Settings: Examples O1-O23
Method: Unless otherwise noted, all LRRK2 IC50 data presented in tables refers to the LRRK2 Km ATP LanthaScreen™ Assay that is described in the Biological Assay section. […] e) Plates are incubated at room temperature for 1 hour and read on an Envision™ multi-mode plate reader with LanthaScreen™ settings. Results are analysed using Assay Data Analyzer.
Assign pIC50 to each entry below.
Please keep in mind that pIC50 is minus log10 of the molar concentration; only the number is needed.

Please indicate pIC50 recorded for COC[C@H](C)Oc1ccc2[nH]nc(-c3cc(N4C[C@H](OC)[C@@H](O)C4)ncn3)c2c1 [Example O21] 7.70

Please indicate pIC50 recorded for COC[C@H](C)Oc1ccc2[nH]nc(-c3cc(N4[C@H](C)COC[C@@H]4C)ncn3)c2c1 [Example O15] 8.13

Please indicate pIC50 recorded for COC[C@H](C)Oc1ccc2[nH]nc(-c3cc(N4CC[C@@H](CF)C4)ncn3)c2c1 [Example O3] 8.57

Please indicate pIC50 recorded for COC[C@H](C)Oc1ccc2[nH]nc(-c3cc(N4CCc5oc(C)nc5C4)ncn3)c2c1 [Example O17] 8.08

Please indicate pIC50 recorded for COC[C@H](C)Oc1ccc2[nH]nc(-c3cc(N4CCCC(F)(F)C4)ncn3)c2c1 [Example O4] 8.55

Please indicate pIC50 recorded for COC[C@H](C)Oc1ccc2[nH]nc(-c3cc(N4C[C@H](F)[C@@H](F)C4)ncn3)c2c1 [Example O12] 8.10

Please indicate pIC50 recorded for COC[C@H](C)Oc1ccc2[nH]nc(-c3cc(N4CCN5C(=O)OCC5C4)ncn3)c2c1 (stereo partly shown) [Example O20] 8.06

Please indicate pIC50 recorded for COC[C@H](C)Oc1ccc2[nH]nc(-c3cc(N4CCOC(C(F)(F)F)C4)ncn3)c2c1 (stereo partly shown) [Example O5] 8.07

Please indicate pIC50 recorded for COC[C@H](C)Oc1ccc2[nH]nc(-c3cc(N4C[C@H](O)[C@@H](N(C)C)C4)ncn3)c2c1 [Example O22] 8.18

Please indicate pIC50 recorded for COC[C@H](C)Oc1ccc2[nH]nc(-c3cc(N4CCC5(CC4)CNC(=O)CO5)ncn3)c2c1 [Example O23] 8.46

Please indicate pIC50 recorded for COC[C@H](C)Oc1ccc2[nH]nc(-c3cc(N4CCOC(C)(C)C4)ncn3)c2c1 [Example O18] 8.28

Please indicate pIC50 recorded for COC[C@H](C)Oc1ccc2[nH]nc(-c3cc(N4CC[C@H](CO)C4)ncn3)c2c1 [Example O6] 8.22

Please indicate pIC50 recorded for COC[C@H](C)Oc1ccc2[nH]nc(-c3cc(N4CCC(F)(F)C4)ncn3)c2c1 [Example O8] 7.90
